Biological target: Estrogen receptor alpha (Homo sapiens)
Test: Binding affinity to human ERalpha relative to estradiol by radiometric binding assay
MEASUREMENT TYPE: relative binding affinity (RBA)

Reference set, count: 5
MOLECULE: Oc1ccc(C(=C2CCCC2)c2ccc(O)cc2)cc1
MEASUREMENT TYPE: relative binding affinity (RBA)
RESULT: 17.8
//
MOLECULE: Oc1ccc(C(=C2CCC(CCF)CC2)c2ccc(O)cc2)cc1 (stereo unspecified)
MEASUREMENT TYPE: relative binding affinity (RBA)
RESULT: 15.9
//
MOLECULE: Oc1ccc(C(=C2CCC2)c2ccc(O)cc2)cc1
MEASUREMENT TYPE: relative binding affinity (RBA)
RESULT: 5.61
//
MOLECULE: CCOC(=O)C1CCC(=C(c2ccc(O)cc2)c2ccc(O)cc2)CC1 (stereo unspecified)
MEASUREMENT TYPE: relative binding affinity (RBA)
RESULT: 6.77
//
MOLECULE: CCOCC1CCC(=C(c2ccc(O)cc2)c2ccc(O)cc2)CC1 (stereo unspecified)
MEASUREMENT TYPE: relative binding affinity (RBA)
RESULT: 4.88

Next item in the queue.
Dear colleague, I am looking for the recorded relative binding affinity (RBA) of the following molecule: CC1CCC(=C(c2ccc(O)cc2)c2ccc(O)cc2)CC1 (stereo unspecified) 66.5

---

Catalogue of compounds with associated relative binding affinity (RBA)
Molecular target: Estrogen receptor alpha (Homo sapiens) (UniProt P03372)
Sequence (P03372 whole entry, looked up): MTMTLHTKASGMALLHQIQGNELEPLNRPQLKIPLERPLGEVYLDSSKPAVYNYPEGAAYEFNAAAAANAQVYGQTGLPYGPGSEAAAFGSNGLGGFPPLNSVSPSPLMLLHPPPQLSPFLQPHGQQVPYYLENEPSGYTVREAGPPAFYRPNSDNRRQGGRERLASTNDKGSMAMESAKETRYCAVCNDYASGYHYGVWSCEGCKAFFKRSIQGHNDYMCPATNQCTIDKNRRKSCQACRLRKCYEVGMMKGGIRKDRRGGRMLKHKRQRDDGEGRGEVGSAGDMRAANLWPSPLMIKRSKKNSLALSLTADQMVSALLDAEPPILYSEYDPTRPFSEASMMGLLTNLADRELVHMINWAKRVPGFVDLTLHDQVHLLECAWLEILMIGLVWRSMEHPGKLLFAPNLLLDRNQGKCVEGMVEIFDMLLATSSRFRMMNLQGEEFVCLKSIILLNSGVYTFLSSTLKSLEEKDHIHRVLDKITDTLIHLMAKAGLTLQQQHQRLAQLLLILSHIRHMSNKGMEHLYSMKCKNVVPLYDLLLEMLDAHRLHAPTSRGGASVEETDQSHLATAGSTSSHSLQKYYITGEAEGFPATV
Assay: Binding affinity to human ERalpha relative to estradiol by radiometric binding assay
Please respond with just the number, no unit label.

Previously resolved entries follow.
COMPOUND: Oc1ccc(C(=C2CCCCCC2)c2ccc(O)cc2)cc1
relative binding affinity (RBA): 110
//
COMPOUND: Oc1ccc(C(=C2CCC(F)CC2)c2ccc(O)cc2)cc1 (stereo unspecified)
relative binding affinity (RBA): 27
//
COMPOUND: CCC1CCC(=C(c2ccc(O)cc2)c2ccc(O)cc2)CC1 (stereo unspecified)
relative binding affinity (RBA): 62.7
//
COMPOUND: COC(=O)CC1CCCC(=C(c2ccc(O)cc2)c2ccc(O)cc2)C1 (stereo unspecified)
relative binding affinity (RBA): 58.5

Need relative binding affinity (RBA) of Oc1ccc(C(=C2CCCC(CCCF)C2)c2ccc(O)cc2)cc1 (stereo unspecified) , thanks. 160

Reported relative binding affinity (RBA), compound OCC1CCC(=C(c2ccc(O)cc2)c2ccc(O)cc2)CC1 (stereo unspecified) : ____ 0.846

Quick one: relative binding affinity (RBA) of Oc1ccc(C(=C2CCC(CCOCCCCF)CC2)c2ccc(O)cc2)cc1 (stereo unspecified) ? 3.77

Given the entry COC(=O)CC1CCC(=C(c2ccc(O)cc2)c2ccc(O)cc2)CC1 (stereo unspecified) , report its measured relative binding affinity (RBA). 10.7

Value lookup for relative binding affinity (RBA); key = COC(=O)C(C(=O)OC)C1CCCC(=C(c2ccc(O)cc2)c2ccc(O)cc2)C1 (stereo unspecified) 19.5

Fill in the blank: the reported relative binding affinity (RBA) of "Oc1ccc(C(=C2CCCCC2)c2ccc(O)cc2)cc1" is ____. 124

Any idea what its relative binding affinity (RBA) is? The compound is Oc1ccc(C(=C2CCCC(CCF)C2)c2ccc(O)cc2)cc1 (stereo unspecified) 122

---

Biological target: Estrogen receptor beta (Homo sapiens) (UniProt Q92731)
Sequence (Q92731 whole entry, looked up): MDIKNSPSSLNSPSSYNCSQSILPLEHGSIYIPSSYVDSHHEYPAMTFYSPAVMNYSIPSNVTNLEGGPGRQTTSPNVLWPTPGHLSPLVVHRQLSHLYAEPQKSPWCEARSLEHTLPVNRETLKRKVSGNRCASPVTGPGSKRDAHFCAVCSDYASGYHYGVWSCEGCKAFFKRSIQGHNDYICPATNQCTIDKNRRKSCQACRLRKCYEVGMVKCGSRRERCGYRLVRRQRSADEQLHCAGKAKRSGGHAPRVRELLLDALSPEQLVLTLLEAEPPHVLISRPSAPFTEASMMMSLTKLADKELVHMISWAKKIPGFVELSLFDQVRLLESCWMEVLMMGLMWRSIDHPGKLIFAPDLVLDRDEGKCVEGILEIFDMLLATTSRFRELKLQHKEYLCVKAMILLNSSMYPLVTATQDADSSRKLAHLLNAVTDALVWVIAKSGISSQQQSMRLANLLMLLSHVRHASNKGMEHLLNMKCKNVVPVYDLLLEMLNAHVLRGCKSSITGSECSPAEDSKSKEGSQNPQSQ
Test: Binding affinity to human ERbeta relative to estradiol by radiometric binding assay
Lab note: compare relative binding affinity (RBA) with 20, writing Satisfied if less and Not satisfied if equal or more.

Please review the entries below; each comes with its answer.
COMPOUND: Oc1ccc(C(=C2CCC(O)CC2)c2ccc(O)cc2)cc1 (configuration not stated)
CATEGORY LABEL: Satisfied
--
COMPOUND: OCCC1CCC(=C(c2ccc(O)cc2)c2ccc(O)cc2)CC1 (configuration not stated)
CATEGORY LABEL: Satisfied
--
COMPOUND: OCC1CCCC(=C(c2ccc(O)cc2)c2ccc(O)cc2)C1 (configuration not stated)
CATEGORY LABEL: Not satisfied
--
COMPOUND: Oc1ccc(C(=C2CCCC(CCCF)C2)c2ccc(O)cc2)cc1 (configuration not stated)
CATEGORY LABEL: Not satisfied

In the record for Oc1ccc(C(=C2CCC(CCOCCCCF)CC2)c2ccc(O)cc2)cc1 (configuration not stated) , is relative binding affinity (RBA) less than 20? Satisfied

Quick check: relative binding affinity (RBA) of COC(=O)C(C(=O)OC)C1CCCC(=C(c2ccc(O)cc2)c2ccc(O)cc2)C1 (configuration not stated) under 20? Satisfied

---

Species: Homo sapiens
Test: Selectivity for ERbeta over ERalpha
Measured Ratio by item
The answer should be a number; do not append a unit.

MOLECULE: Oc1ccc(C(=C2CCC2)c2ccc(O)cc2)cc1
Ratio: 3.7
//
MOLECULE: Oc1ccc(C(=C2CCCCCC2)c2ccc(O)cc2)cc1
Ratio: 3.2
//
MOLECULE: CC1CCC(=C(c2ccc(O)cc2)c2ccc(O)cc2)CC1 (centres undefined)
Ratio: 4.1
//
MOLECULE: Oc1ccc(C(=C2CCC(F)CC2)c2ccc(O)cc2)cc1 (centres undefined)
Ratio: 2.3
//
MOLECULE: OCCC1CCC(=C(c2ccc(O)cc2)c2ccc(O)cc2)CC1 (centres undefined)
Ratio: 0.14

Return reported Ratio; argument: CCOC(=O)C1CCC(=C(c2ccc(O)cc2)c2ccc(O)cc2)CC1 (centres undefined) 0.45

Ratio for "Oc1ccc(C(=C2CCCC2)c2ccc(O)cc2)cc1" ? 7.7

Find the recorded Ratio belonging to OCC1CCC(=C(c2ccc(O)cc2)c2ccc(O)cc2)CC1 (centres undefined) and report it. 0.99

Can you look up the measured Ratio of Oc1ccc(C(=C2CCC(CCOCCCCF)CC2)c2ccc(O)cc2)cc1 (centres undefined) for me? 0.38

Query (molecule): COC(=O)CC1CCCC(=C(c2ccc(O)cc2)c2ccc(O)cc2)C1 (centres undefined) ; field requested: Ratio 0.18

---

Target: Estrogen receptor alpha (Homo sapiens)
Assay: Binding affinity to human ERalpha relative to estradiol by radiometric binding assay
Assign class by relative binding affinity (RBA): not lower than 20 means TRUE; lower than 20 means FALSE.

// known answers, use as guide
MOLECULE: Oc1ccc(C(=C2CCC(CF)CC2)c2ccc(O)cc2)cc1 (configuration not stated)
CATEGORY LABEL: FALSE
//
MOLECULE: OCCC1CCC(=C(c2ccc(O)cc2)c2ccc(O)cc2)CC1 (configuration not stated)
CATEGORY LABEL: FALSE
//
MOLECULE: OCCCC1CCCC(=C(c2ccc(O)cc2)c2ccc(O)cc2)C1 (configuration not stated)
CATEGORY LABEL: TRUE
//
MOLECULE: Oc1ccc(C(=C2CCC(O)CC2)c2ccc(O)cc2)cc1 (configuration not stated)
CATEGORY LABEL: FALSE
//
MOLECULE: COC(=O)C1CCCC(=C(c2ccc(O)cc2)c2ccc(O)cc2)C1 (configuration not stated)
CATEGORY LABEL: TRUE

Exam item: decide whether the reported relative binding affinity (RBA) for OCCC1CCCC(=C(c2ccc(O)cc2)c2ccc(O)cc2)C1 (configuration not stated) is at least 20. TRUE

Given the entry OCC1CCCC(=C(c2ccc(O)cc2)c2ccc(O)cc2)C1 (configuration not stated) , answer whether its relative binding affinity (RBA) meets or surpasses 20. TRUE

---

Biological target: Estrogen receptor beta (Homo sapiens) (UniProt Q92731)
Test: Binding affinity to human ERbeta relative to estradiol by radiometric binding assay
MEASUREMENT TYPE: relative binding affinity (RBA)
Lab note: record the figure alone, no unit after it.

For the molecule "Oc1ccc(C(=C2CCCCCC2)c2ccc(O)cc2)cc1" , what relative binding affinity (RBA) is on record? 354

# lookup: relative binding affinity (RBA) of Oc1ccc(C(=C2CCC(CF)CC2)c2ccc(O)cc2)cc1 (configuration not stated) 41.5

Please report the recorded relative binding affinity (RBA) for OCC1CCC(=C(c2ccc(O)cc2)c2ccc(O)cc2)CC1 (configuration not stated) . 0.841

Which relative binding affinity (RBA) value is on record for OCCC1CCCC(=C(c2ccc(O)cc2)c2ccc(O)cc2)C1 (configuration not stated) ? 57.6

Need relative binding affinity (RBA), item COC(=O)CC1CCCC(=C(c2ccc(O)cc2)c2ccc(O)cc2)C1 (configuration not stated) 10.3

Item under review: COC(=O)CC1CCC(=C(c2ccc(O)cc2)c2ccc(O)cc2)CC1 (configuration not stated) . Reported relative binding affinity (RBA)? 1.72

Could you tell me which relative binding affinity (RBA) is on file for "Oc1ccc(C(=C2CCCC2)c2ccc(O)cc2)cc1" ? 137

Which measured relative binding affinity (RBA) value corresponds to CC1CCC(=C(c2ccc(O)cc2)c2ccc(O)cc2)CC1 (configuration not stated) ? 274

Query (molecule): CCOCC1CCC(=C(c2ccc(O)cc2)c2ccc(O)cc2)CC1 (configuration not stated) ; field requested: relative binding affinity (RBA) 2.82

Which measured relative binding affinity (RBA) value corresponds to Oc1ccc(C(=C2CCC(F)CC2)c2ccc(O)cc2)cc1 (configuration not stated) ? 61.8

Quick one: relative binding affinity (RBA) of "Oc1ccc(C(=C2CCC2)c2ccc(O)cc2)cc1" ? 20.5

What value of measured relative binding affinity (RBA) is listed for Oc1ccc(C(=C2CCCC(CCF)C2)c2ccc(O)cc2)cc1 (configuration not stated) ? 129
